# target or test system: Serine/threonine-protein kinase PLK2 (Homo sapiens)
# Sequence (Q9NYY3 whole entry): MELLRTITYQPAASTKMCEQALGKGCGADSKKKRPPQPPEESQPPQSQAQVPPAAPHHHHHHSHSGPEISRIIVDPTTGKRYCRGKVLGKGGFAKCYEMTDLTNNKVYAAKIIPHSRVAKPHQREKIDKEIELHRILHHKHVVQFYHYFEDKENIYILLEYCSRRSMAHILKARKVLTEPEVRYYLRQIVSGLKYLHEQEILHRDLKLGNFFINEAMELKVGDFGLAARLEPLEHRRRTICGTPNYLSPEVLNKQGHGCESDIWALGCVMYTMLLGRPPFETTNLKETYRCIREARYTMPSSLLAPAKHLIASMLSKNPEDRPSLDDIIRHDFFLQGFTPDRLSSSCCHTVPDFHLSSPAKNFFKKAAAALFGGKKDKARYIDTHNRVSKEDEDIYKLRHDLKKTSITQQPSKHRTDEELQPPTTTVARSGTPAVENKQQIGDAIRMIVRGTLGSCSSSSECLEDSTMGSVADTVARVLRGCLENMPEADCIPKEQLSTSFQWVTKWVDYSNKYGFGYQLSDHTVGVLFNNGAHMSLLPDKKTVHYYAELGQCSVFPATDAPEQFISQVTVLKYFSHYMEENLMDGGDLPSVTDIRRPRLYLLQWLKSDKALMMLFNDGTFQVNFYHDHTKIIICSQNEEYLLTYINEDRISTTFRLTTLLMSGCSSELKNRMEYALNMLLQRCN
pIC50: −log10 of the molar value.
readout label: pIC50

INSERT INTO assay_data (molecular_string, readout_label, measured_value) VALUES
  ('C[C@H](Nc1cc2c(-c3ccc4c(c3)OCO4)noc2cn1)c1ccccc1', 'pIC50', 8.40);

* * *

# protocol details: cells
# study conditions: Homo sapiens, HCT-116
pIC50: −log10 of the molar value.
readout label: pIC50

INSERT INTO results (molecular_string, value_modifier, measured_value) VALUES
  ('Cc1cccc(-c2noc3cnc(N[C@@H](C)c4ccccc4)cc23)c1', '=', 5.17),
  ('C[C@H](Nc1cc2c(-c3cc(Cl)cc(CCC(N)=O)c3)noc2cn1)c1ccccc1', '=', 5.08),
  ('COc1ccc(-c2noc3cnc(N[C@@H](C)c4ccccc4)cc23)cc1OC', '<', 4.70),
  ('C[C@H](Nc1cc2c(-c3cccc(Cl)c3)noc2cn1)c1ccccc1', '<', 4.70);
